- measurement.protocol: Brain-to-plasma ratio after oral gavage or intranasal administration (Example 4)
- Type: in vivo, Sprague-Dawley rats
- settings: Sprague-Dawley, rat, in vivo, inhaled or intranasal, 1 mg/kg, intranasal 1 mg/kg with pargyline; 30 minute time point; one animal; read-out: Brain-to-plasma ratio
endpoint: Kp at 0.5 h
Give bare numbers.

// query Return reported Kp at 0.5 h. Input molecule: `CNCC/C=C/c1cccnc1`
// result 0.21

---

- measurement.protocol: Brain-to-plasma ratio after oral gavage or intranasal administration (Example 4)
- Format: in vivo, Sprague-Dawley rats
- settings: Sprague-Dawley, rat, in vivo, intranasal, 1 mg/kg, Average brain-to-plasma ratio
endpoint: Kp at […]
Numbers only.

// query Answer with reported Kp at […] of CN[C@@H](C)C/C=C/c1cncc(OC)c1 [Compound A]
// result 1.58

---

- measurement.protocol: Brain-to-plasma ratio of Compound C after oral gavage or intranasal administration (Example 5)
- Assay type: in vivo, Sprague-Dawley rats
- settings: Sprague-Dawley, rat, brain, oral, 5 mg/kg, 5 mg/kg oral dose; 30 min; read-out: Brain Conc.
endpoint: concentration at 30 min

// query Supply measured concentration at 30 min of `CN[C@@H](C)C/C=C/c1cncc(OC(C)C)c1` in your reply.
// result 1020 ng/g

---

- measurement.protocol: Brain-to-plasma ratio of Compound C after oral gavage or intranasal administration (Example 5)
- Format: in vivo, Sprague-Dawley rats
- settings: Sprague-Dawley, rat, plasma, other: intranasal, 5 mg/kg, intranasal 5 mg/kg; 30 minutes; read-out: Average plasma levels
endpoint: concentration at 30 min (µg/mL)
Give bare numbers, in µg/mL.

// query Given `CN[C@@H](C)C/C=C/c1cncc(OC(C)C)c1` , respond with its concentration at 30 min.
// result 0.421

---

- measurement.protocol: Brain-to-plasma ratio of Compound C after oral gavage or intranasal administration (Example 5)
- Assay type: in vivo, Sprague-Dawley rats
- settings: Sprague-Dawley, rat, brain homogenate, other: intranasal, 1 mg/kg, 1 mg/kg intranasal dose; 60 min; read-out: Brain Conc.
endpoint: concentration at 60 min (ng/mL)
Numbers only, in ng/mL.

// query Name the recorded concentration at 60 min of the item `CN[C@@H](C)C/C=C/c1cncc(OC(C)C)c1` in your answer.
// result 17.7

---

- measurement.protocol: Permeation across cultured human respiratory epithelium (EpiAir tissue), apical-to-basolateral Papp
- settings: human, pH 7.4, Papp, Treatment 2: Compound B assayed with controls + MAO inhibitor Pargyline; Rep 2
endpoint: Papp at 120 min (×10⁻⁶ cm/s)
Numbers only, in ×10⁻⁶ cm/s.

// query // fetch Papp at 120 min given entry `CNCC/C=C/c1cccnc1`
// result 25.9

---

- measurement.protocol: Brain-to-plasma ratio of Compound C after oral gavage or intranasal administration (Example 5)
- Type: in vivo, Sprague-Dawley rats
- settings: Sprague-Dawley, rat, brain/plasma, po, 5 mg/kg, 10 min; read-out: 5 mg/kg IN/5 mg/kg PO, Ratio (brain to plasma)
endpoint: Kp at […]
One number for each entry.

// query Note Kp at […] for the compound shown: `CN[C@@H](C)C/C=C/c1cncc(OC(C)C)c1`
// result 1.5

---

- measurement.protocol: Brain-to-plasma ratio after oral gavage or intranasal administration (Example 4)
- Type: in vivo, Sprague-Dawley rats
- settings: Sprague-Dawley, rat, in vivo, inhaled or intranasal, 1 mg/kg, intranasal 1 mg/kg without pargyline; 10 minute time point; two animals; read-out: Brain-to-plasma ratio (average value)
endpoint: Kp at […]
Numbers only.

// query Give the measured Kp at […] for `CNCC/C=C/c1cccnc1`
// result 1.09

---

- measurement.protocol: Brain-to-plasma ratio of Compound C after oral gavage or intranasal administration (Example 5)
- Format: in vivo, Sprague-Dawley rats
- settings: Sprague-Dawley, rat, brain/plasma, po, 5 mg/kg, 5 mg/kg oral dose; 60 min; read-out: Mean Ratio (brain-to-plasma)
endpoint: Kp at 1 h
Answers are plain numbers.

// query Specify reported Kp at 1 h for the molecule shown: `CN[C@@H](C)C/C=C/c1cncc(OC(C)C)c1`
// result 3.5

---

- measurement.protocol: Brain-to-plasma ratio of Compound C after oral gavage or intranasal administration (Example 5)
- Type: in vivo, Sprague-Dawley rats
- settings: Sprague-Dawley, rat, brain, inhaled or intranasal, 1 mg/kg, 1 mg/kg intranasal dose; 30 min; read-out: Mean Ratio (brain-to-plasma)
endpoint: Kp at 0.5 h
Give bare numbers.

// query Specify measured Kp at 0.5 h for `CN[C@@H](C)C/C=C/c1cncc(OC(C)C)c1` .
// result 2.8

---

- measurement.protocol: Brain-to-plasma ratio of Compound C after oral gavage or intranasal administration (Example 5)
- Type: in vivo, Sprague-Dawley rats
- settings: Sprague-Dawley, rat, brain, other: intranasal, 5 mg/kg, intranasal 5 mg/kg; 30 minutes; read-out: Average brain levels
endpoint: concentration at 30 min
Don't forget the unit after the number, please.

// query Please give measured concentration at 30 min of the following entry: CN[C@@H](C)C/C=C/c1cncc(OC(C)C)c1 [Compound C]
// result 1160 ng/g

---

- measurement.protocol: Brain-to-plasma ratio after oral gavage or intranasal administration (Example 4)
- Assay type: in vivo, Sprague-Dawley rats
- settings: Sprague-Dawley, rat, in vivo, po, 10 mg/kg, oral gavage administration; two animals, both at the minute time point
endpoint: Kp
Give bare numbers.

// query Note down Kp recorded for CNCC/C=C/c1cccnc1 [Compound B]
// result 0.22

---

- measurement.protocol: Permeation across cultured human respiratory epithelium (EpiAir tissue), apical-to-basolateral Papp
- settings: human, pH 7.4, Papp, Treatment 1: Compound B assayed with controls; Rep 3
endpoint: Papp at 120 min

// query Return value of Papp at 120 min for input `CNCC/C=C/c1cccnc1` , no commentary.
// result 184 nm/s

---

- measurement.protocol: Permeation across cultured human respiratory epithelium (EpiAir tissue), apical-to-basolateral Papp
- settings: human, pH 7.4, Papp, Treatment 1: Compound B assayed with controls; Average ± STD
endpoint: Papp at 120 min (×10⁻⁶ cm/s)
Answers are plain numbers, in ×10⁻⁶ cm/s.

// query Output measured Papp at 120 min for this item: CNCC/C=C/c1cccnc1 [Compound B]
// result 18.3

---

- measurement.protocol: Brain-to-plasma ratio after oral gavage or intranasal administration (Example 4)
- Assay type: in vivo, Sprague-Dawley rats
- settings: Sprague-Dawley, rat, in vivo, 10 mg/kg, Brain-to-Plasma Ratio
endpoint: Kp at 1 h
Answers are plain numbers.

// query Identify measured Kp at 1 h associated with `CN[C@@H](C)C/C=C/c1cncc(OC)c1`
// result 0.038

---

- measurement.protocol: Permeation across cultured human respiratory epithelium (EpiAir tissue), apical-to-basolateral Papp
- settings: human, pH 7.4, Papp, Treatment 2: Compound B assayed with controls + MAO inhibitor Pargyline; Rep 3
endpoint: Papp at 120 min (×10⁻⁶ cm/s)
Give bare numbers, in ×10⁻⁶ cm/s.

// query Report Papp at 120 min, nothing else, for this compound: `CNCC/C=C/c1cccnc1`
// result 25.2

---

- measurement.protocol: Brain-to-plasma ratio of Compound C after oral gavage or intranasal administration (Example 5)
- Type: in vivo, Sprague-Dawley rats
- settings: Sprague-Dawley, rat, brain/plasma, po, 5 mg/kg, 60 min; read-out: 5 mg/kg IN/5 mg/kg PO, Ratio (brain to plasma)
endpoint: Kp at 1 h
Numbers only.

// query Please look at this molecule and report its Kp at 1 h: `CN[C@@H](C)C/C=C/c1cncc(OC(C)C)c1`
// result 0.7

---

- measurement.protocol: Brain-to-plasma ratio of Compound C after oral gavage or intranasal administration (Example 5)
- Type: in vivo, Sprague-Dawley rats
- settings: Sprague-Dawley, rat, brain homogenate, other: intranasal, 1 mg/kg, 1 mg/kg intranasal dose; 30 min; read-out: Brain Conc.
endpoint: concentration at 30 min (ng/mL)
One number for each entry, in ng/mL.

// query Give recorded concentration at 30 min. `CN[C@@H](C)C/C=C/c1cncc(OC(C)C)c1`
// result 43.7

---

- measurement.protocol: Brain-to-plasma ratio of Compound C after oral gavage or intranasal administration (Example 5)
- Format: in vivo, Sprague-Dawley rats
- settings: Sprague-Dawley, rat, brain, po, 5 mg/kg, oral gavage 5 mg/kg; 30 minutes; read-out: Average brain levels
endpoint: concentration at 30 min (ng/g)
Answers are plain numbers, in ng/g.

// query Return value of concentration at 30 min for input `CN[C@@H](C)C/C=C/c1cncc(OC(C)C)c1` , no commentary.
// result 1170

---

- measurement.protocol: Permeation across cultured human respiratory epithelium (EpiAir tissue), apical-to-basolateral Papp
- settings: human, pH 7.4, Papp, Treatment 2: Compound B assayed with controls + MAO inhibitor Pargyline; Rep 1
endpoint: Papp at 120 min (×10⁻⁶ cm/s)
One number for each entry, in ×10⁻⁶ cm/s.

// query Name the recorded Papp at 120 min of the item CNCC/C=C/c1cccnc1 [Compound B] in your answer.
// result 25.1
